assay: in vitro; conditions: human, hela cells, % viability
Below, each of the compounds is paired with its reported viability at 28.5 h, 10 µM value.
Unit % implied. Number only.

Solved entries:
Compound: FC(F)(F)CCN1CCC2(CC1)NCCc1c2[nH]c2ccc(Cl)cc12
viability at 28.5 h, 10 µM (%): 91
--
Compound: CCc1nc(C)c(C(C)N(C)CC(=O)NCc2ccco2)s1 (stereo not shown)
viability at 28.5 h, 10 µM (%): 86.6

Which viability at 28.5 h, 10 µM is reported for this compound? COc1ccc(-c2ccc3c(c2)C(=O)N2CCN(C(=O)CC(C)(C)C)C[C@@H]2C(=O)N3)cc1
94.6

Okay, and COc1ccc(CNC(=O)[C@H]2C=CCN2C(=O)C2CC2)cc1 ?
109

Okay, and CCNC(=O)Nc1c[nH]nc1C1CCCN(c2cccc(F)c2C#N)C1 (stereo not shown) ?
86.5

Okay, and Cc1cc(C(=O)O)c(C)cc1N ?
95.5

Okay, and Cc1nonc1CC(=O)N1C2CCC1CC(c1ccc(F)cc1)C2 (stereo not shown) ?
89.1

Okay, and Cc1ccnc(NS(=O)(=O)c2ccc(NC(=O)c3cc(-c4ccc(Br)cc4)nc4ccccc34)cc2)n1 ?
96.8

Data origin: paper PMC12040169
